Values compiled from paper PMC7058304.

Quick reference for pKd among some binders
target: T1, Recombinant purified human PD-1 protein, residues Leu25-Thr168, with a C-terminal 6-His tag (human, UniProt Q15116); assay: SPR; Carterra LSA, CMD-P (flat) chip; mAbs captured on goat anti-human IgG Fc in a 384-spot array; PD-1-His analyte 0.5-1000 nM, 5 min association, 20 min dissociation; HBS-ET + 0.5 mg/ml BSA; 1:1 Langmuir fit; mean of spots; apparent; conditions: both partners purified
T1 construct: programmed cell death protein 1 (PD-1), human, residues Leu25-Thr168; monomer; the results call it wild-type or full length PD-1 against the P35-Q167 fragment; also called PD-1-His; PD-1 His-tagged monomer; source: bought: R&D Systems; not shown: His6, C-terminal, kept
T1 sequence (Q15116 25-168): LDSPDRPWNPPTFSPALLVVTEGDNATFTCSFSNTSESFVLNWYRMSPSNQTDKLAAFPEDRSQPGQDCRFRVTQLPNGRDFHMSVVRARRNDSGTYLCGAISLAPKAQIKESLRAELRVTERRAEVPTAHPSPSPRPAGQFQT
pKd: −log10 of the molar value.

Example entries and their recorded answers appear below.
mAb03 (analog of tislelizumab) (antibody, V domains shown, VH; IgG4 heavy-chain constant region with stabilizing 226CPPC hinge; VL; IgG4 analog; source: HEK293 suspension cells, cotransfected, purified (Protein A)) VH: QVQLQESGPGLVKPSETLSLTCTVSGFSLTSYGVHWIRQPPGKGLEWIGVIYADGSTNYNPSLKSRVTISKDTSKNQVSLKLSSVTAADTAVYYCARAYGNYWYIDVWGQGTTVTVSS VL: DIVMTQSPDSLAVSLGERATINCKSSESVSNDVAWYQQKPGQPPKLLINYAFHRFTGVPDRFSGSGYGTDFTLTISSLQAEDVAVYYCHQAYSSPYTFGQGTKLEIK: > 10.00
mAb21 (analog of sintilimab) (antibody, V domains shown, VH; IgG4 heavy-chain constant region with stabilizing 226CPPC hinge; VL; IgG4 analog; source: HEK293 suspension cells, cotransfected, purified (Protein A)) VH: QVQLVQSGAEVKKPGSSVKVSCKASGGTFSSYAISWVRQAPGQGLEWMGLIIPMFDTAGYAQKFQGRVAITVDESTSTAYMELSSLRSEDTAVYYCARAEHSSTGTFDYWGQGTLVTVSS VL: DIQMTQSPSSVSASVGDRVTITCRASQGISSWLAWYQQKPGKAPKLLISAASSLQSGVPSRFSGSGSGTDFTLTISSLQPEDFATYYCQQANHLPFTFGGGTKVEIK: > 9.89

Moving on to another binder below.
Qu. Quick one: pKd for mAb17 (analog of camrelizumab) (antibody, V domains shown, VH; IgG4 heavy-chain constant region with stabilizing 226CPPC hinge; VL; IgG4 analog; source: HEK293 suspension cells, cotransfected, purified (Protein A)) VH: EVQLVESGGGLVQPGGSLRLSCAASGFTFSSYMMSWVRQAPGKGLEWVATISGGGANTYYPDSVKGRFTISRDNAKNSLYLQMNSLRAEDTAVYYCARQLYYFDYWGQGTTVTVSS VL: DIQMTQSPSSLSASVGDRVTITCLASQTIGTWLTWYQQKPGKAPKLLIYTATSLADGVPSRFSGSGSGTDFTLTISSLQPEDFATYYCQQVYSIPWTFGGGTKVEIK ?
Ans. 8.40
